Attribution: the supplement of paper PMC3545927

Target: furin, P09958;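 note: purified furin at 1:10 enzyme:substrate in 50 mM HEPES pH 7.5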
Sequence (P09958 whole entry): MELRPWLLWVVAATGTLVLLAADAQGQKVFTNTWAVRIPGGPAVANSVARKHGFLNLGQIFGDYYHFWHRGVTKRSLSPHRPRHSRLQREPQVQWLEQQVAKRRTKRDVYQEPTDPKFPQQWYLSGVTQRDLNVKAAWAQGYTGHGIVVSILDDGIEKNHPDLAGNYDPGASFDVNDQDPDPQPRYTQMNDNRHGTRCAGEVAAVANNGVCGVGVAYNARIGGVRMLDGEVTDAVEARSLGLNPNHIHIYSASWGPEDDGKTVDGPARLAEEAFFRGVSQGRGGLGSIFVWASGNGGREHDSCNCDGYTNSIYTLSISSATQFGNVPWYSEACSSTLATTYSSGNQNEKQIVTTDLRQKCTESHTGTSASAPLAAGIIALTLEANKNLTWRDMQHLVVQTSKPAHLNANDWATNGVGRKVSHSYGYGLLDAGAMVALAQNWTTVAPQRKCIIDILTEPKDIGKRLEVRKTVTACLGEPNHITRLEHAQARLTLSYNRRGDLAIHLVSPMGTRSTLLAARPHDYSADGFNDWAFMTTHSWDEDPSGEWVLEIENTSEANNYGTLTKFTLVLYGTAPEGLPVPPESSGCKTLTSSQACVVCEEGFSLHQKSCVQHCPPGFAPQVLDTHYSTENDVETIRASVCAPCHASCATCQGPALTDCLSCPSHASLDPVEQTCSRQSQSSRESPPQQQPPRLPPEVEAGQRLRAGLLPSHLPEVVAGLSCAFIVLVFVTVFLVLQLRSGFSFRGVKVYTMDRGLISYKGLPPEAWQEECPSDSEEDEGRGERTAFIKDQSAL
Test: furin cleavage Z-score vs untreated control; higher = more cleavage, active = 3.5 or more, inactive = 1 or less, 8 variable residues between constant flanks
Details: 7.5 min
The list shows a part of the results. How many sequences the whole screen found active is unknown.
measurement kind: furin cleavage Z-score

- CAAGRRALRSAGNASASA [FS-1182]: 4.32
- CAFNLRMKRDAGNASASA [FS-525]: 14.3
- CAKQFRALRSAGNASASA [FS-1595]: 4.54
- CAQLVRALRSAGNASASA [FS-848]: 7.22
